# maps each entry to its melting point

Use the examples below as a reference point.
• CN(Cc1ncc(C(F)(F)F)cc1Cl)C(=O)c1c(Cl)cccc1Cl [Compound 63] = 83 to 84 °C
• CCOC(=O)C(NC(=O)c1ccc(OC)c(OC)c1)c1ncc(CF)cc1Cl (centres unmarked) = 40 to 43 °C

Indicate its recorded melting point; the compound in question is O=C(NCc1ncc(Cl)cc1Cl)c1c(Cl)cccc1Cl [Compound 59]
161 to 165 °C

Indicate its recorded melting point; the compound in question is O=C(NC(Cc1ccccc1)c1ncc(C(F)(F)F)cc1Cl)c1c(Cl)cccc1Cl (centres unmarked)
164 to 168 °C

Indicate its recorded melting point; the compound in question is FC(F)(F)c1cnc(CNC(=S)c2ccccc2Cl)c(Cl)c1 [Compound 701]
102 to 105 °C
